B1: GMCL1 (parent)
chain: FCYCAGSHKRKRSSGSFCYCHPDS

# Variants of: B1
# ASSAY NAME: protein stability index of a GFP-peptide fusion (GPS, HEK-293T) (PSI 1-6); higher = more stable;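 also: lentivirally expressed fusions sorted by FACS into six bins by GFP to DsRed ratio, PSI derived from sequencing read proportions per bin multiplied by bin number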
# RUN PARAMETERS: c terminus: a fixed tail appended
Classes are defined on protein stability index with ranges bin 0 = under 2, bin 1 = from 2 up to 3, bin 2 = 3 and over

Qu. Sort FPYCAGSHKRKRSSGSFCYCHPDS [C2P] into one of the categories.
Ans. bin 0

Qu. Sort FQYCAGSHKRKRSSGSFCYCHPDS [C2Q] into one of the categories.
Ans. bin 2

Qu. Sort FCYCAGSHKRKRSSGSHCYCHPDS [F17H] into one of the categories.
Ans. bin 1

Qu. Sort FCHCAGSHKRKRSSGSFCYCHPDS [Y3H] into one of the categories.
Ans. bin 0

Qu. Sort FCYCAGKHKRKRSSGSFCYCHPDS [S7K] into one of the categories.
Ans. bin 1

Qu. Sort FTYCAGSHKRKRSSGSFCYCHPDS [C2T] into one of the categories.
Ans. bin 1

Qu. Sort FCYCAGVHKRKRSSGSFCYCHPDS [S7V] into one of the categories.
Ans. bin 0

Qu. Sort FCYCAGSHKRKRSSGSFCYCWPDS [H21W] into one of the categories.
Ans. bin 0

Qu. Sort FCYCAGSHKRKRSSGSFCKCHPDS [Y19K] into one of the categories.
Ans. bin 2

Qu. Sort FCYCAGSHKRKYSSGSFCYCHPDS [R12Y] into one of the categories.
Ans. bin 1

Qu. Sort FCYLAGSHKRKRSSGSFCYCHPDS [C4L] into one of the categories.
Ans. bin 1

Qu. Sort FCYCAGSHKEKRSSGSFCYCHPDS [R10E] into one of the categories.
Ans. bin 1

Qu. Sort FCYCAGSHKRKRSSGEFCYCHPDS [S16E] into one of the categories.
Ans. bin 2

Qu. Sort FCPCAGSHKRKRSSGSFCYCHPDS [Y3P] into one of the categories.
Ans. bin 0

Qu. Sort FCYCAGSHKRKRSSGSFCYCYPDS [H21Y] into one of the categories.
Ans. bin 1

Qu. Sort FCYCAGSHKRKRLSGSFCYCHPDS [S13L] into one of the categories.
Ans. bin 1

Qu. Sort FCYCAGSHWRKRSSGSFCYCHPDS [K9W] into one of the categories.
Ans. bin 1

Qu. Sort FCYCAGSHKRKRSSGSFCYCHPPS [D23P] into one of the categories.
Ans. bin 1

Qu. Sort FCYCAGSHKRKRSSGSFCYCHKDS [P22K] into one of the categories.
Ans. bin 1

Qu. Sort FCYCAGSHKRKRSSGSFCACHPDS [Y19A] into one of the categories.
Ans. bin 2
